All figures here come from PubChem BioAssay.

experimentalProtocol: small-molecule microarray binders of probe aWnt5a, primary screen, biochemical, biotinylated probe, 635/667 nm fluorescence (AID 1113);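 note: score merges 667 nm fluorescence intensity with signal-to-noise per printed feature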
statedConditions: higher = more signal
endpointLabel: composite z-score
Answer using only a numeral; do not append any unit.

• Cc1cc2c(nc1C)CCCCN2CC(O)CN1CCCc2nc(-c3ccc(Br)cc3)ccc21 (stereo not drawn) = 0.093
• O=C1CCCC=C1C(O)C1CCCCC1 (stereo not drawn) = 0.0088
• CC(CCN1CCc2nc(-c3ccccc3)c(-c3ccccc3)cc2C1)=NO[C@H](C)c1cn([C@H](CO)Cc2ccccc2)nn1 = -0.0242
• CC(CCC(=O)OC[C@H]1O[C@H](C#Cc2ccccc2)C=C[C@@H]1Oc1ccc(C)cc1)=NOC(C)CN1CCCCc2nc(C)c(C)cc21 (stereo partly drawn) = -0.197
• O=C1C[C@@H](O)[C@@H](O)[C@@H]2[C@@H]3C(=O)N(C4CCCCC4)C(=O)[C@@H]3CC[C@@H]12 = -0.177

For the compound CCN(CC)CC(O)CN1CCCCc2nc(C)c(C)cc21 (stereo not drawn) , give its reported composite z-score. -0.129

Report measured composite z-score; entry is CCCNC(=O)OC[C@H]1O[C@H](CCON=C[C@@H](NS(=O)(=O)c2ccc(C)cc2)[C@H](C)C=CCC(=O)OC)C=C[C@@H]1Oc1ccc(OC)cc1 -0.117

Specify reported composite z-score for the compound shown: COC(=O)C1=C(C)N(Cc2ccccc2)C2=C3C(=O)OCC[C@@H]3[C@@](O)(C(=O)OC)C(=O)N2[C@@H]1c1ccccc1 -0.13
